# run_description: Pharmacokinetic test in rats
# Assay type: in vivo
# assay_conditions: rat, po; male SD rats, intragastric administration (10 mg/kg), plasma
half-life of 3 h or higher: y. Under 3 h: n.

Sample answers from the record:
smiles_code | class_label
O=c1cc(CN2Cc3ccc(C(F)(F)F)cc3C2)occ1/C=C/[C@H]1CC[C@H](NC(=O)[C@H]2C[C@@H](F)C2)CC1 | n
[2H]C([2H])([2H])C(=O)N[C@H]1CC[C@H](COc2coc(CN3Cc4ccc(C(F)(F)F)cc4C3)cc2=O)CC1 | n
O=C(OC1CC1)N1CCC(/C=C/c2coc(CN3Cc4ccc(C(F)(F)F)cc4C3)cc2=O)CC1 | y
O=C(CC1CC1)N1CCC(/C=C/c2coc(CN3Cc4ccc(C(F)(F)F)cc4C3)cc2=O)CC1 | n
Cn1cc(C(=O)N[C@H]2CC[C@H](COc3coc(CN4Cc5ccc(C(F)(F)F)cc5C4)cc3=O)CC2)cn1 | n
O=C(N[C@H]1CC[C@H](COc2coc(CN3Cc4ccc(C(F)(F)F)cc4C3)cc2=O)CC1)C1COC1 | n

Then this molecule:
Q: Is half-life at least 3 h? Consider [2H]C([2H])([2H])n1cc(C(=O)N[C@H]2CC[C@H](/C=C/c3coc(CN4Cc5ccc(C(F)(F)F)cc5C4)cc3=O)CC2)cn1
A: y

---

# run_description: Pharmacokinetic test in rats
# Type: in vivo
# assay_conditions: rat; male SD rats, intravenous administration (2.5 mg/kg), plasma
Yes if half-life is below 3 h. No if not; exact matches included in No.

smiles_code | class_label
CS(=O)(=O)N1CC(OC(=O)N2CCC(COc3coc(CN4Cc5ccc(C(F)(F)F)cc5C4)cc3=O)CC2)C1 | Yes
O=c1cc(CN2Cc3ccc(C(F)(F)F)cc3C2)occ1/C=C/[C@H]1CC[C@H](NC(=O)[C@H]2C[C@@H](F)C2)CC1 | Yes
O=C(N[C@H]1CC[C@H](/C=C/c2coc(CN3Cc4ccc(C(F)(F)F)cc4C3)cc2=O)CC1)C1CC1 | Yes
Cn1cc(C(=O)N[C@H]2CC[C@H](COc3coc(CN4Cc5ccc(C(F)(F)F)cc5C4)cc3=O)CC2)cn1 | Yes
C/C(=C\[C@H]1CC[C@H](NC(=O)c2cnn(C)c2)CC1)c1coc(CN2Cc3ccc(C(F)(F)F)cc3C2)cc1=O | No

Q: Report whether reported half-life is lower than 3 h (strictly) for O=C(CC1CC1)N1CCC(/C=C/c2coc(CN3Cc4ccc(C(F)(F)F)cc4C3)cc2=O)CC1
A: Yes

Q: half-life strictly < 3 h for this compound? CS(=O)(=O)N1CC(OC(=O)N[C@H]2CC[C@H](COc3coc(CN4Cc5ccc(C(F)(F)F)cc5C4)cc3=O)CC2)C1
A: Yes

Q: Determine whether this compound shows half-life lower than 3 h (ties excluded): [2H]C([2H])([2H])n1cc(C(=O)N[C@H]2CC[C@H](CCc3coc(CN4Cc5ccc(C(F)(F)F)cc5C4)cc3=O)CC2)cn1
A: Yes

Q: Strictly below 3 h: is that where half-life of [2H]C([2H])([2H])n1cc(C(=O)N[C@H]2CC[C@H](/C=C/c3coc(CN4Cc5ccc(C(F)(F)F)cc5C4)cc3=O)CC2)cn1 sits?
A: No

Q: Determine if O=C(OC1CC1)N1CCC(/C=C/c2coc(CN3Cc4ccc(C(F)(F)F)cc4C3)cc2=O)CC1 shows half-life strictly lower than 3 h.
A: No

---

# run_description: Pharmacokinetic test in mice
# Assay type: in vivo
# assay_conditions: mouse, po; male ICR mice, intragastric administration (10 mg/kg), plasma
Hi there, I'd appreciate the recorded half-life for every entry that follows.
Give bare numbers, in h.

compound | quantitative_result
O=C(N[C@H]1CC[C@H](/C=C/c2coc(CN3Cc4ccc(C(F)(F)F)cc4C3)cc2=O)CC1)[C@H]1CC1(F)F [Compound 90] | 6.36
Cn1cc(C(=O)N[C@H]2CC[C@H](COc3coc(CN4Cc5ccc(C(F)(F)F)cc5C4)cc3=O)CC2)cn1 [Compound 35] | 2.85
CS(=O)(=O)N1CC(OC(=O)N2CCC(COc3coc(CN4Cc5ccc(C(F)(F)F)cc5C4)cc3=O)CC2)C1 [Compound 17] | 2.42
O=C(N[C@H]1CC[C@H](/C=C/c2coc(CN3Cc4ccc(C(F)(F)F)cc4C3)cc2=O)CC1)C1CC1 [Compound 61] | 3.47
[2H]C([2H])([2H])C(=O)N[C@H]1CC[C@H](COc2coc(CN3Cc4ccc(C(F)(F)F)cc4C3)cc2=O)CC1 [Compound 33] | 2.45

Dear colleague, could you please provide half-life for the compounds listed below?
1. [2H]C([2H])([2H])n1cc(C(=O)N[C@H]2CC[C@H](CCc3coc(CN4Cc5ccc(C(F)(F)F)cc5C4)cc3=O)CC2)cn1 [Compound 118]
2. O=C(N[C@H]1CC[C@H](COc2coc(CN3Cc4ccc(C(F)(F)F)cc4C3)cc2=O)CC1)C1CC1 [Compound 15]

A:
1. 3.45
2. 3.19

---

# System: pregnenolone level in NCI-H295R cells
# run_description: cells
# Type: cell-based
# assay_conditions: Homo sapiens, 72 h, read-out: Pregnenolone level in H295R (Elisa) IC50 nM
reported_metric: IC50 (nM)
Answers are plain numbers, in nM.

Check out these entries, answers already filled in.
molecule | IC50 [nM]
[2H]C([2H])([2H])C(=O)N[C@H]1CC[C@H](/C=C/c2coc(CN3Cc4ccc(C(F)(F)F)cc4C3)cc2=O)CC1 [Compound 80] | 190
CS(=O)(=O)N1CC(OC(=O)N2CCC(COc3coc(CN4Cc5ccc(C(F)(F)F)cc5C4)cc3=O)CC2)C1 [Compound 17] | 773
O=C(N[C@H]1CC[C@H](/C=C/c2coc(CN3Cc4ccc(C(F)(F)F)cc4C3)cc2=O)CC1)C1CC1 [Compound 61] | 370

Record IC50 per entry; entries follow.
1. O=C(N[C@H]1CC[C@H](/C=C/c2coc(CN3Cc4ccc(C(F)(F)F)cc4C3)cc2=O)CC1)[C@H]1CC1(F)F [Compound 90]
2. O=C(N[C@H]1CC[C@H](COc2coc(CN3Cc4ccc(C(F)(F)F)cc4C3)cc2=O)CC1)C1CC1 [Compound 15]
3. Cc1nc(C(=O)N[C@H]2CC[C@H](/C=C/c3coc(CN4Cc5ccc(C(F)(F)F)cc5C4)cc3=O)CC2)co1 [Compound 84]

A:
119
382
121

---

# run_description: Pharmacokinetic test in mice
# Assay type: in vivo
# assay_conditions: mouse; male ICR mice, intravenous administration (2.5 mg/kg), plasma
TRUE means recorded half-life is 4 h or above; FALSE means it is below 4 h.

Example entries and their recorded answers appear below.
compound | class_label
[2H]C([2H])([2H])n1cc(C(=O)N[C@H]2CC[C@H](/C=C/c3coc(CN4Cc5ccc(C(F)(F)F)cc5C4)cc3=O)CC2)cn1 [Compound 81] | TRUE
O=C(N[C@H]1CC[C@H](/C=C/c2coc(CN3Cc4ccc(C(F)(F)F)cc4C3)cc2=O)CC1)[C@H]1CC1(F)F [Compound 90] | TRUE
Cn1cc(C(=O)N[C@H]2CC[C@H](COc3coc(CN4Cc5ccc(C(F)(F)F)cc5C4)cc3=O)CC2)cn1 [Compound 35] | FALSE
CS(=O)(=O)N1CC(OC(=O)N2CCC(COc3coc(CN4Cc5ccc(C(F)(F)F)cc5C4)cc3=O)CC2)C1 [Compound 17] | FALSE
O=C(N[C@H]1CC[C@H](/C=C/c2coc(CN3Cc4ccc(C(F)(F)F)cc4C3)cc2=O)CC1)C1CC(F)(F)C1 [Compound 88] | TRUE
[2H]C([2H])([2H])n1cc(C(=O)N[C@H]2CC[C@H](CCc3coc(CN4Cc5ccc(C(F)(F)F)cc5C4)cc3=O)CC2)cn1 [Compound 118] | FALSE

Q: Answer whether half-life of O=C(N[C@H]1CC[C@H](/C=C/c2coc(CN3Cc4ccc(C(F)(F)F)cc4C3)cc2=O)CC1)[C@@H]1CC1(F)F [Compound 89] is greater than or equal to 4 h.
A: TRUE

---

# run_description: Pharmacokinetic test in mice
# Type: in vivo
# assay_conditions: mouse; male ICR mice, intravenous administration (2.5 mg/kg), plasma
Please go through the items and note down their AUC(0-t).
Answers are plain numbers, in ng·h/mL.

List the reported AUC(0-t) of each compound below.
1. O=C(N[C@H]1CC[C@H](/C=C/c2coc(CN3Cc4ccc(C(F)(F)F)cc4C3)cc2=O)CC1)[C@H]1CC1(F)F
2. [2H]C([2H])([2H])C(=O)N[C@H]1CC[C@H](COc2coc(CN3Cc4ccc(C(F)(F)F)cc4C3)cc2=O)CC1
3. O=C(N[C@H]1CC[C@@H](COc2coc(CN3Cc4ccc(C(F)(F)F)cc4C3)cc2=O)CC1)C1COC1

A:
1. 10600
2. 2090
3. 5870
